Tested on: Chi18 model RNA
Experiment: TapeStation Assay, Chi18 model RNA
Format: biochemical, Trichoderma atroviride
Conditions: intact Chi18 RNA after 15 min at 50° C., 20 mM amino acids in 50 mM CAPS pH 11, run #1
MET means recorded Conc. chi18#1 is 20 or above; NOT MET means it is below 20.

Solved cases below.
compound	assayed.target	class.assignment
NCC(=O)O	Chi18 model RNA	MET
CC[C@H](C)[C@H](N)C(=O)O	Chi18 model RNA	NOT MET
CSCC[C@H](N)C(=O)O	Chi18 model RNA	MET
CC(C)[C@H](N)C(=O)O	Chi18 model RNA	NOT MET
C[C@H](N)C(=O)O	Chi18 model RNA	NOT MET
N[C@@H](CS)C(=O)O	Chi18 model RNA	NOT MET

Does the reported Conc. chi18#1 for N[C@@H](CCC(=O)O)C(=O)O fall at or above the 20 mark? MET
